assay-system: human ether-à-go-go-related gene (hERG) potassium channel (human)
test-method-notes: primary screen, population patch clamp on CHO cells stably expressing hERG; higher = less effect of the substance
Out of some 310,000 compounds screened, about 14,000 (4.5%) showed an effect of 50% or more. Effects have a minus sign here. What follows is part of a selection rich in strong results, with near analogues and random picks from the rest.
Threshold check on hERG current change (%, negative = inhibition) at 10uM: at or above -30% gives MET, strictly below gives NOT MET.

COCCNC(=S)N1CCC(c2nc(-c3ccc(N(C)C)cc3)no2)CC1; MET
CN(CC(=O)Nc1c(Cl)cccc1Cl)C(=O)Cc1cccs1; MET
O=C(c1ccc(F)cc1)C1CCN(C(=O)Nc2ccc(F)cc2)CC1; NOT MET
Cn1nc(C(C)(C)C)cc1NC(=O)Nc1ccc(F)cc1F; MET
O=C(c1ccccc1)N1CCC(O)(c2ccc3c(c2)OCO3)CC1; MET
COc1ccc(-c2nnc(SC(C)C(=O)NCc3ccc4c(c3)OCO4)n2Cc2ccco2)cc1 (centres unmarked); NOT MET
CCN1CCN(c2cc(C)c3cc(NC(=S)N(CC)CC)ccc3n2)CC1; NOT MET
CCOc1ccc(N(C(=O)/C=C/C(=O)Nc2cc(C)on2)C(C(=O)NC2CCCC2)c2ccccc2C)cc1 (centres unmarked); MET
CC(C)CNC(=S)N1CCC(c2nc(-c3ccc(F)cc3)no2)CC1; NOT MET
COCCNC(=S)N1CCC(c2nc(-c3ccc(F)cc3)no2)CC1; MET

Given the entry `Cc1cc(C)cc(NC(=O)N2CCC(C(=O)c3ccc(F)cc3)CC2)c1` , answer whether its hERG current change (%, negative = inhibition) at 10uM meets or surpasses -30%. NOT MET

Proceed to `CCOC(=O)c1c2c3c(cccc3[nH]c1=O)C(=O)c1ccccc1-2` MET

Proceed to `O=C(CSc1nnc(-c2ccc(Cl)cc2)n1Cc1ccco1)NCc1ccc2c(c1)OCO2` NOT MET

Proceed to `O=C(CSc1nnc(-c2cccnc2)n1Cc1ccco1)NCc1ccc2c(c1)OCO2` NOT MET

Proceed to `CC(=O)c1c2c3c(cccc3n(C)c1=O)C(=O)c1ccccc1-2` MET

Proceed to `CCCCN(C)CCNC(=S)Nc1ccc2nc(N3CCN(CC)CC3)cc(C)c2c1` MET

* * *

assay-system: human ether-à-go-go-related gene (hERG) potassium channel (human, UniProt Q12809);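 note: peak tail current of the secondary pulse compared with the same well before compound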
Sequence (Q12809 whole entry, looked up): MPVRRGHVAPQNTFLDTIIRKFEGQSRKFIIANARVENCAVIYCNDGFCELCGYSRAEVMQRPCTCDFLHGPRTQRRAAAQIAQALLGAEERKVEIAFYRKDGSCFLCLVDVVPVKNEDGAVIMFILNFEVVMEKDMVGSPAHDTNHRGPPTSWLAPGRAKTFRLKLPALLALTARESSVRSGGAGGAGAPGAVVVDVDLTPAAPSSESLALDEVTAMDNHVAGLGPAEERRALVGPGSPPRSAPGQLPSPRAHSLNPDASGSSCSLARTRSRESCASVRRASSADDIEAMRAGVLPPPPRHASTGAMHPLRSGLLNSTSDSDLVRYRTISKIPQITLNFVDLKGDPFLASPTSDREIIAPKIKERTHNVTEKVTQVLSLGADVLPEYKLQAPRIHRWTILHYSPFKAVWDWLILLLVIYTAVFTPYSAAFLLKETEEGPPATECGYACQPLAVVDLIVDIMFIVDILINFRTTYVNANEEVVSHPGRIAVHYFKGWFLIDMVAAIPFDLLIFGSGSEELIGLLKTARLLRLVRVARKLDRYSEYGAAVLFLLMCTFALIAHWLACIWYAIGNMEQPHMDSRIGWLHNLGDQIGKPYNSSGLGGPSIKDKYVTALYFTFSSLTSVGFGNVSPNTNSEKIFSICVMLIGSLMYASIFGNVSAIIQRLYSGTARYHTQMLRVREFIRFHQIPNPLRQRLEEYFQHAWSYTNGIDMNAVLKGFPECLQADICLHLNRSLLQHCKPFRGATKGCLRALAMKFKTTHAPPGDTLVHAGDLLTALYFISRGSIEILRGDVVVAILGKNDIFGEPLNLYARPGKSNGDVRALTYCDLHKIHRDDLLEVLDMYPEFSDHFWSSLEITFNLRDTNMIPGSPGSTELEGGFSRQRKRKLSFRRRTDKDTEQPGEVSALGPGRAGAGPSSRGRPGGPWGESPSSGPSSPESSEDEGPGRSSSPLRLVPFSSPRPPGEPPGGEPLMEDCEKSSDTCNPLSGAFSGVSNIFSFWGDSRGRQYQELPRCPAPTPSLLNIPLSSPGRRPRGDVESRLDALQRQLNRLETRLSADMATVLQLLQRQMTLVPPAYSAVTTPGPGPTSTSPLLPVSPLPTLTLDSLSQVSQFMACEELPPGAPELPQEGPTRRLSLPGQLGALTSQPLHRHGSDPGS
test-method-notes: primary screen, population patch clamp on CHO cells stably expressing hERG; higher = less effect of the substance
The whole screen tested about 310,000 compounds, of which about 14,000 (4.5%) showed an effect of 50% or more. The effect is printed as a negative number. Shown is part of a subset that was picked to be rich in strong results.
metric: hERG current change (%, negative = inhibition) at 10uM (%)
Express the result in % but write the number alone.

Study these solved cases before continuing.
CC(=O)Nc1ccc(S(=O)(=O)N2CCN(C(=O)C3COc4ccccc4O3)CC2)cc1 (centres unmarked); -7.33
COc1ccc(C(=O)Nc2ccc(Br)cn2)cc1S(=O)(=O)N1CCOCC1; -57.9
CCOc1ccc(-c2cn[nH]c2N)cc1; -5.03

What value of hERG current change (%, negative = inhibition) at 10uM has been reported for the following compound? CCCOc1ccc(N2C(=O)CC(SCc3nc4ccccc4[nH]3)C2=O)cc1 (centres unmarked) -41.2

Proceed to CC(C)CC(NS(=O)(=O)OCC(Cl)(Cl)Cl)c1ccccc1 (centres unmarked) 1.57

Proceed to `COc1cc(CNCCN2CCOCC2)ccc1OCC(=O)NC(C)(C)C.Cl` 6.17

Proceed to CCN1CCN(c2ccc(S(=O)(=O)N3CCOCC3)cc2NC(=O)C(C)Oc2ccc(F)cc2)CC1 (centres unmarked) -57.4

Proceed to `Cc1cc(C(F)F)n2nc(C(=O)Nc3sc4c(c3C#N)CCC4)nc2n1` 18.3

* * *

assay-system: human ether-à-go-go-related gene (hERG) potassium channel (human);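 note: peak tail current of the secondary pulse compared with the same well before compound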
test-method-notes: primary screen, population patch clamp on CHO cells stably expressing hERG; higher = less effect of the substance
The campaign covered roughly 310,000 compounds. About 14,000 (4.5%) showed an effect of 50% or more. Effects have a minus sign here. Shown is part of a subset that was picked to be rich in strong results.
Listing of recorded hERG current change (%, negative = inhibition) at 10uM by entry.
Express your answer as a number followed by its unit.

Cc1ccc(-c2nn3c(C)nnc3c3ccccc23)cc1S(=O)(=O)N1CCN(CCO)CC1; -74.5%
COc1cccc(NC(=O)CC2(CC(=O)O)CCCC2)c1; -39.8%
O=C(NC(=O)N1CCOCC1)c1ccccc1; 8.08%
Cc1cc(C)n2c(Nc3ccc4c(c3)OCCO4)c(-c3ccccc3)nc2n1; -16.7%
Cc1cc(C)c(C(N)=O)c(Nc2ccc3c(c2)OCCO3)n1; 0.162%
Cc1ccnc(NC(=O)CCC(=O)N(CC(=O)NC(C)(C)C)C2CCCC2)c1; 1%

What value of hERG current change (%, negative = inhibition) at 10uM has been reported for the following compound? CN(CC(=O)Nc1ccccc1C(F)(F)F)C(=O)CC1OC(=O)c2ccccc21 (centres unmarked) 9.27%

Proceed to `CCOc1ccc(C(=O)Nc2ccc3c(c2)OCCO3)cc1` -1.74%

Proceed to COc1ccccc1C1=NOC(C)(c2sc(-c3ccccc3)nc2C)C1 (centres unmarked) 21.7%

Proceed to `Cc1ccc(S(=O)(=O)N[C@H](C(=O)N2CCC(C(=O)N[C@@H](CC(=O)O)C(=O)O)CC2)C(C)C)cc1` 24.9%

Proceed to O=C(c1ccco1)N1CCN(C(=O)C2CC(c3ccccc3F)=NO2)CC1 (centres unmarked) -18.3%

Proceed to O=C(c1ccco1)N1CCN(C(=O)C2CC(c3ccc(Cl)cc3)=NO2)CC1 (centres unmarked) -76.2%

Proceed to `Cc1ccc2nc(C)cc(Nc3ccc4c(c3)OCCO4)c2c1.Cl` -58.2%

Proceed to `Cc1ccc(-n2cc(-c3ccccc3)c3c(=O)[nH]cnc32)cc1` 8.89%

Proceed to O=C(c1ccco1)N1CCN(C(=O)C2CC(c3ccc(F)cc3)=NO2)CC1 (centres unmarked) -72.5%

Proceed to `CCOc1ccc2nc(C)cc(Nc3ccc4c(c3)OCCO4)c2c1.Cl` -72.4%

Proceed to Cc1ccc(-c2nn3c(C)nnc3c3ccccc23)cc1S(=O)(=O)NC(C)c1ccccc1 (centres unmarked) -50.8%

Proceed to `CC(=O)N1CCN(c2ccc(Nc3ncnc4c3oc3ccccc34)cc2)CC1.Cl` -65.9%

Proceed to COc1cccc(C2=NOC(C(=O)N3CCN(C(=O)c4ccco4)CC3)C2)c1 (centres unmarked) -40.1%

Proceed to COc1cc(OC)c(C2=NOC(C(=O)N3CCN(C(=O)c4ccco4)CC3)C2)cc1Cl (centres unmarked) -35.3%

* * *

assay-system: human ether-à-go-go-related gene (hERG) potassium channel (human, UniProt Q12809);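 note: peak tail current of the secondary pulse compared with the same well before compound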
test-method-notes: primary screen, population patch clamp on CHO cells stably expressing hERG; higher = less effect of the substance
Among all 310,000 compounds or so, about 14,000 (4.5%) showed an effect of 50% or more. Effects have a minus sign here. Only a selection was taken, and strong results are over-represented in it overall.
Listing of recorded hERG current change (%, negative = inhibition) at 10uM by entry.
Express the result in % but write the number alone.

Study these solved cases before continuing.
Cc1cc(C(=O)COc2ccccc2[N+](=O)[O-])c(C)n1-c1cccc(S(=O)(=O)N2CCOCC2)c1; -9.82
Cc1cc(C(=O)CN2C(=O)CN(C)C2=O)c(C)n1-c1cccc(S(=O)(=O)N2CCOCC2)c1; -49.8
Cc1cc(C(=O)CSc2ncn[nH]2)c(C)n1-c1cccc(S(=O)(=O)N2CCOCC2)c1; -28.5
COc1ccc(NC(=O)C(=O)N/N=C/c2cccnc2)c(OC)c1; 21.3

What value of hERG current change (%, negative = inhibition) at 10uM has been reported for the following compound? `Cc1ccc(C)n1-c1cccc(S(=O)(=O)N2CCOCC2)c1` 7.55

* * *

assay-system: human ether-à-go-go-related gene (hERG) potassium channel (human, UniProt Q12809);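 note: peak tail current of the secondary pulse compared with the same well before compound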
test-method-notes: primary screen, population patch clamp on CHO cells stably expressing hERG; higher = less effect of the substance
About 14,000 (4.5%) of roughly 310,000 compounds showed an effect of 50% or more. Effects have a minus sign here. Only a selection was taken, and strong results are over-represented in it overall.
Listing of recorded hERG current change (%, negative = inhibition) at 10uM by entry.
Express the result in % but write the number alone.

COc1ccc(C(=O)N2CCc3cc(OC)c(OC)cc3C2c2ccc(OC)c(OC)c2)cc1 (stereo not shown); -12
Cc1ccc(SCCC(=O)NCc2ccncc2)cc1; -61.9

What value of hERG current change (%, negative = inhibition) at 10uM has been reported for the following molecule? COc1cc2c(cc1OC)C(c1cccs1)N(C(=O)c1ccc(S(=O)(=O)N(C)C)cc1)CC2 (stereo not shown) -72.6

Proceed to COc1ccc(C(=O)N2CCc3cc(OC)c(OC)cc3C2c2ccc(OC)c(OC)c2)cc1OC (stereo not shown) 1.43
